Test system FAK enzyme (6 His tagged kinase domain, GenBank NP—722560) (Homo sapiens), pIC50 listed for each of the molecules.
Numbers only, as −log10 of the molar value.

SMILES_STRING	VALUE_REPORTED
CNC(=O)c1ccccc1Nc1cc(Nc2cnn(CC(=O)N3CCCC3)c2)ncc1F	5.82

Can you give me pIC50 for all of these, one by one?
1. Cc1cc(Nc2cc(Nc3cccc4c3C(=O)N(C)CC4)c(C#N)cn2)nn1C
2. CNC(=O)c1cc(OC)ccc1Nc1cc(Nc2cn(C)nc2C)ncc1C(F)(F)F
3. CON(C)C(=O)c1ccccc1Nc1cc(Nc2cnn(C3CCN(C)CC3)c2)ncc1Cl
4. COCCN(C)C(=O)Cn1cc(Nc2cc(Nc3cccc4c3C(=O)N(C)CC4)c(F)cn2)cn1
5. CNC(=O)c1ccccc1Nc1cc(Nc2cnn(CC(=O)N(C)CCOC)c2)ncc1F
6. CNC(=O)c1ccccc1Nc1cc(Nc2cnn(C3CCOCC3)c2)ncc1F

1: 8.40; 2: 8.10; 3: 5.91; 4: 6.53; 5: 5.67; 6: 5.47

Can you give me pIC50 for all of these, one by one?
1. Cc1nn(C)cc1Nc1cc(Nc2cccc3c2C(=O)N(C)CC3)c(C(F)(F)F)cn1
2. CN(C)CCCNC(=O)Cn1cc(Nc2cc(Nc3cccc4c3C(=O)N(C)CC4)c(F)cn2)cn1

1. 8.22
2. 6.73
